VR values by entry
Test system: Human alphaherpesvirus 1
Experiment: Antiviral activity is expressed as virus rating (VR) against the HSV-1 HF strain
Format: functional

Below, 3 compounds whose answers are already recorded.
COMPOUND	MEASURE NAME	RECORDED RESULT
Nc1nc2c(ncn2COCCO)c(=O)[nH]1	VR	0
Nc1nc(Cl)c2ncn([C@@H]3C[C@H](CO)C[C@H]3O)c2n1	VR	1.5
Nc1nc(O)c2ncn(C3CC(CO)CC3O)c2n1 (centres undefined)	VR	0

Continue with the next compound.
Hello, I am looking for reported VR with Human alphaherpesvirus 1 for Nc1ncnc2c1ncn2[C@@H]1O[C@H](CO)[C@@H](O)[C@@H]1O . Could you help?
2.4
